# Tested on: DU-145
# protocol: Antiproliferative activity against human DU145 cells under hypoxia condition assessed as growth inhibition at 10 to 100 uM after 24 hrs by MTT assay
# Format: functional, cell-based
Activity calls are given as the source filed them. The rule behind the calls is not given here.
measured_property: growth inhibition (GI)

Input "CC(=O)OC/C(C)=C/CC/C(C)=C/CC/C(C)=C/CC/C(C)=C/CCc1ccoc1" , output reported growth inhibition (GI).
Active

Find the measured growth inhibition (GI) of "CC#CCC/C(C)=C/CC/C(C)=C/CC/C(C)=C/CC/C(C)=C/CCc1ccoc1" and report it.
Active

Assign growth inhibition (GI) to the following record: "CC(C)=CCC/C(C)=C/CC/C(C)=C/CC/C(C)=C/CCc1ccoc1"
Active

Quickly give me recorded growth inhibition (GI) for "C#CCOC/C(C)=C/CC/C(C)=C/CC/C(C)=C/CC/C(C)=C/CCc1ccoc1"
Active

More entries:
Respond only with growth inhibition (GI) recorded for "C#CC/C(C)=C/CC/C(C)=C/CC/C(C)=C/CC/C(C)=C/CCc1ccoc1"
Active

// Input: "C/C(=C\CC/C(C)=C/CC/C(C)=C/CC/C(C)=C/CCc1ccoc1)CO" . Output its growth inhibition (GI) only.
Active

Identify the reported growth inhibition (GI) for the following entry. "C#CCC/C(C)=C/CC/C(C)=C/CC/C(C)=C/CC/C(C)=C/CCc1ccoc1"
Active
